I'd be grateful if you could share measured abundance fitness for these entries.
B1: Androgen receptor, residues 557 to 632; numbered along this chain, P10275 (parent)
chain: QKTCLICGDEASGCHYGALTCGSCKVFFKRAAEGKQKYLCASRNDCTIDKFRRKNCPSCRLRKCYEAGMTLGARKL

Variants of: B1
Experiment: abundance fitness (aPCA) (normalised: wild type 0, dead -1); higher = more abundant; growth selection in yeast, the domain comes from the species named
Conditions: Homo sapiens
# print the numeric value only

// Input: R74V . Output its abundance fitness only. -0.063

// Input: Y65G . Output its abundance fitness only. -0.218

// Input: G13I . Output its abundance fitness only. -0.416

// Input: S23E . Output its abundance fitness only. -0.013

// Input: K50S . Output its abundance fitness only. -0.13

// Input: D45T . Output its abundance fitness only. -0.091

// Input: S12H . Output its abundance fitness only. -0.237

// Input: D45I . Output its abundance fitness only. -0.07

// Input: I48Q . Output its abundance fitness only. -0.203

// Input: A41S . Output its abundance fitness only. -0.041

// Input: Y16K . Output its abundance fitness only. -0.473

// Input: S58A . Output its abundance fitness only. -0.035

// Input: D45S . Output its abundance fitness only. -0.275

// Input: T20L . Output its abundance fitness only. -0.166

// Input: P57A . Output its abundance fitness only. -0.011

// Input: T20K . Output its abundance fitness only. -0.755

// Input: C40D . Output its abundance fitness only. -1.14

// Input: V26M . Output its abundance fitness only. 0.053

// Input: K29R . Output its abundance fitness only. -0.075

// Input: E33W . Output its abundance fitness only. -0.25

// Input: C7T . Output its abundance fitness only. -0.819

// Input: P57V . Output its abundance fitness only. -0.037

// Input: Y38C . Output its abundance fitness only. -0.305

// Input: N44W . Output its abundance fitness only. -0.344

// Input: K63A . Output its abundance fitness only. -0.141

// Input: L5K . Output its abundance fitness only. -0.053

// Input: N55R . Output its abundance fitness only. -0.06

// Input: C56I . Output its abundance fitness only. -0.782

// Input: P57H . Output its abundance fitness only. 0.02

// Input: L71N . Output its abundance fitness only. -0.129

// Input: G72N . Output its abundance fitness only. -0.136

// Input: D9Q . Output its abundance fitness only. -0.071

// Input: D45P . Output its abundance fitness only. -0.221

// Input: L5V . Output its abundance fitness only. -0.145

// Input: P57Q . Output its abundance fitness only. -0.095

// Input: K35T . Output its abundance fitness only. 0.039

// Input: R74N . Output its abundance fitness only. -0.044

// Input: D49E . Output its abundance fitness only. -0.066

// Input: K29Y . Output its abundance fitness only. -0.148

// Input: S12N . Output its abundance fitness only. 0.21

// Input: L19S . Output its abundance fitness only. -0.109

// Input: S12I . Output its abundance fitness only. -0.091

// Input: Y65T . Output its abundance fitness only. -0.276

// Input: S12L . Output its abundance fitness only. 0.055

// Input: L5M . Output its abundance fitness only. -0.212

// Input: R74A . Output its abundance fitness only. -0.119

// Input: S23C . Output its abundance fitness only. -0.185

// Input: C24N . Output its abundance fitness only. -0.904

// Input: A32L . Output its abundance fitness only. -0.167

// Input: I6R . Output its abundance fitness only. -0.525

// Input: K29F . Output its abundance fitness only. 0.019

// Input: C4E . Output its abundance fitness only. -0.563

// Input: Y38W . Output its abundance fitness only. -0.239

// Input: C24I . Output its abundance fitness only. -0.904

// Input: S12Y . Output its abundance fitness only. -0.031

// Input: R30D . Output its abundance fitness only. -0.066

// Input: L39K . Output its abundance fitness only. 0.094

// Input: S58H . Output its abundance fitness only. -0.112

// Input: L71V . Output its abundance fitness only. -0.085

// Input: Q1V . Output its abundance fitness only. 0.06

// Input: L71P . Output its abundance fitness only. -0.15

// Input: C14V . Output its abundance fitness only. -0.231

// Input: A32P . Output its abundance fitness only. -0.591

// Input: T47E . Output its abundance fitness only. -0.059

// Input: I6M . Output its abundance fitness only. -0.811

// Input: C21S . Output its abundance fitness only. -1.05

// Input: A41Y . Output its abundance fitness only. 0.044

// Input: E33H . Output its abundance fitness only. -0.153

// Input: L19M . Output its abundance fitness only. -0.03

// Input: C4L . Output its abundance fitness only. -0.745

// Input: F27R . Output its abundance fitness only. -0.977

// Input: C46Y . Output its abundance fitness only. -1.06
